Entries annotated with measured inhibition at 1.1 µM
Measurement Target: hERG (Kv11.1, KCNH2) (Homo sapiens, UniProt Q12809)
Sequence (Q12809 whole entry): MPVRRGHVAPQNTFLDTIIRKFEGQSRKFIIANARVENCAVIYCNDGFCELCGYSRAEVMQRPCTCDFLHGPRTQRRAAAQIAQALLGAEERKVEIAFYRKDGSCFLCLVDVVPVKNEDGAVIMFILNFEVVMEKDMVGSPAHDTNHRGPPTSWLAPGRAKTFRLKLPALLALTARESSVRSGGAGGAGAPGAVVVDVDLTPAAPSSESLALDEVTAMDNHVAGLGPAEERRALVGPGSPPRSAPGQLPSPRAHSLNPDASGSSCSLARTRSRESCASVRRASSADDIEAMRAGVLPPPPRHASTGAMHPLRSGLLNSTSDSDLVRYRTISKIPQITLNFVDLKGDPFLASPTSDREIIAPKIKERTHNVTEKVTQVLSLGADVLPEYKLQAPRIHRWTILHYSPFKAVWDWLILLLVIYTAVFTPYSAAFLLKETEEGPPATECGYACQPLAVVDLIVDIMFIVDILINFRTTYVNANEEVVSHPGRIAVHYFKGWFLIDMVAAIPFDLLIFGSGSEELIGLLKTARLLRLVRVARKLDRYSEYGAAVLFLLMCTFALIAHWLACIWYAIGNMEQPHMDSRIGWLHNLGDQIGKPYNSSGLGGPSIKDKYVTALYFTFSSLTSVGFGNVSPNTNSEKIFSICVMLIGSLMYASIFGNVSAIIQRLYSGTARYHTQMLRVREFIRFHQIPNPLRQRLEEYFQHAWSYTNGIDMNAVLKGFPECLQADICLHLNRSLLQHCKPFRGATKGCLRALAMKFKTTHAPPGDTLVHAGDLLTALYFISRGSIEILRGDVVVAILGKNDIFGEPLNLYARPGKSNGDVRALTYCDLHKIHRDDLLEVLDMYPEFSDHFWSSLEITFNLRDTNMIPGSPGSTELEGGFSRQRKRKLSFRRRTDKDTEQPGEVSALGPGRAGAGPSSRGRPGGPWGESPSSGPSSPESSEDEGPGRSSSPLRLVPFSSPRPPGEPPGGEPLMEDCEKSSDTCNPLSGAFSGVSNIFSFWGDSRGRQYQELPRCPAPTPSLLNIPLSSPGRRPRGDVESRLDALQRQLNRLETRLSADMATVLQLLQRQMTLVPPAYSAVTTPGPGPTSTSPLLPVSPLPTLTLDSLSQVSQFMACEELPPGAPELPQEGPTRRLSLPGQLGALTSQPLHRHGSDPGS
Test Method Notes: in vitro
Description: MMV: Malaria Box compounds were tested for inhibition of the human ether a go-go related gene (hERG), Kv11.1 channel, using IonWorks 384-well patch clamp electrophysiology at 1.1uM (3 independent assay plates up to 12 cells per concentration).
Value expressed in %; do not type the unit.

Field: example entries. Status: answers known.
[
  {
    "Molecule": "O=C(Nc1ccc(N2CCN(Cc3ccccc3)CC2)cc1)c1cccs1",
    "Unit String": "%",
    "inhibition at 1.1 µM": 12
  },
  {
    "Molecule": "Oc1ccc(-c2nc(-c3ccc4oc5ccc(-c6[nH]c(-c7ccc(O)cc7)nc6-c6ccccc6)cc5c4c3)c(-c3ccccc3)[nH]2)cc1",
    "Unit String": "%",
    "inhibition at 1.1 µM": 12
  },
  {
    "Molecule": "CCn1c(CN2CCN(Cc3ccccc3)CC2)nc2cc(NC(=O)c3cccs3)ccc21",
    "Unit String": "%",
    "inhibition at 1.1 µM": 71
  },
  {
    "Molecule": "Cc1ccc2nc(C)cc(Nc3cccc(C(F)(F)F)c3)c2c1",
    "Unit String": "%",
    "inhibition at 1.1 µM": 48
  },
  {
    "Molecule": "COc1ccc(C)c2sc(N(Cc3cccnc3)C(=O)c3ccc(C#N)cc3)nc12",
    "Unit String": "%",
    "inhibition at 1.1 µM": 1
  }
]

With those in mind, consider the next molecule.
stdin: Report inhibition at 1.1 µM, nothing else, for this molecule: O=C(Nc1ccsc1C(=O)NC1CCCCC1)c1ccc(F)cc1
stdout: -3
